These measurements were taken from patent US11780851B2.

- EXPERIMENTAL_DETAILS: Rat B/P (brain disposition)
- Format: in vivo, male Sprague-Dawley rats
- DETAILS: male, Sprague-Dawley, brain, oral gavage 5 mg/kg, time point 1.0 h, mean ± stdev, n = 3, read-out: Total brain concentration
EXPERIMENTAL_ENDPOINT: concentration at 1 h (ng/g)

- Cc1c2c(nn1[C@@H]1CCOC3(CC3)C1)OCCCn1nc(Cl)c3cnc(nc31)N2 (single isomer, unassigned): 363
- Cc1c2c(nn1[C@H]1CCCCOC1)OCCCn1nc(Cl)c3cnc(nc31)N2 (single isomer, unassigned): 443

(P) Cc1c2c(nn1[C@H]1CCCOCC1)OCCCn1nc(Cl)c3cnc(nc31)N2 (single isomer, unassigned)
(Q) Cc1c2c(nn1C13CC(C#N)(C1)C3)OCCCn1nc(Cl)c3cnc(nc31)N2
**Q:** Select one: P or Q . Criterion: greater recorded concentration at 1 h. Reply briefly: the label of your chosen item.
**A:** P
(P: 427 ng/g, Q: 37 ng/g)

----------
- MEASURED_TARGET: LRRK2 G2019S (Homo sapiens, UniProt Q5S007, G2019S)
- Sequence (Q5S007 970-2527 G2019S): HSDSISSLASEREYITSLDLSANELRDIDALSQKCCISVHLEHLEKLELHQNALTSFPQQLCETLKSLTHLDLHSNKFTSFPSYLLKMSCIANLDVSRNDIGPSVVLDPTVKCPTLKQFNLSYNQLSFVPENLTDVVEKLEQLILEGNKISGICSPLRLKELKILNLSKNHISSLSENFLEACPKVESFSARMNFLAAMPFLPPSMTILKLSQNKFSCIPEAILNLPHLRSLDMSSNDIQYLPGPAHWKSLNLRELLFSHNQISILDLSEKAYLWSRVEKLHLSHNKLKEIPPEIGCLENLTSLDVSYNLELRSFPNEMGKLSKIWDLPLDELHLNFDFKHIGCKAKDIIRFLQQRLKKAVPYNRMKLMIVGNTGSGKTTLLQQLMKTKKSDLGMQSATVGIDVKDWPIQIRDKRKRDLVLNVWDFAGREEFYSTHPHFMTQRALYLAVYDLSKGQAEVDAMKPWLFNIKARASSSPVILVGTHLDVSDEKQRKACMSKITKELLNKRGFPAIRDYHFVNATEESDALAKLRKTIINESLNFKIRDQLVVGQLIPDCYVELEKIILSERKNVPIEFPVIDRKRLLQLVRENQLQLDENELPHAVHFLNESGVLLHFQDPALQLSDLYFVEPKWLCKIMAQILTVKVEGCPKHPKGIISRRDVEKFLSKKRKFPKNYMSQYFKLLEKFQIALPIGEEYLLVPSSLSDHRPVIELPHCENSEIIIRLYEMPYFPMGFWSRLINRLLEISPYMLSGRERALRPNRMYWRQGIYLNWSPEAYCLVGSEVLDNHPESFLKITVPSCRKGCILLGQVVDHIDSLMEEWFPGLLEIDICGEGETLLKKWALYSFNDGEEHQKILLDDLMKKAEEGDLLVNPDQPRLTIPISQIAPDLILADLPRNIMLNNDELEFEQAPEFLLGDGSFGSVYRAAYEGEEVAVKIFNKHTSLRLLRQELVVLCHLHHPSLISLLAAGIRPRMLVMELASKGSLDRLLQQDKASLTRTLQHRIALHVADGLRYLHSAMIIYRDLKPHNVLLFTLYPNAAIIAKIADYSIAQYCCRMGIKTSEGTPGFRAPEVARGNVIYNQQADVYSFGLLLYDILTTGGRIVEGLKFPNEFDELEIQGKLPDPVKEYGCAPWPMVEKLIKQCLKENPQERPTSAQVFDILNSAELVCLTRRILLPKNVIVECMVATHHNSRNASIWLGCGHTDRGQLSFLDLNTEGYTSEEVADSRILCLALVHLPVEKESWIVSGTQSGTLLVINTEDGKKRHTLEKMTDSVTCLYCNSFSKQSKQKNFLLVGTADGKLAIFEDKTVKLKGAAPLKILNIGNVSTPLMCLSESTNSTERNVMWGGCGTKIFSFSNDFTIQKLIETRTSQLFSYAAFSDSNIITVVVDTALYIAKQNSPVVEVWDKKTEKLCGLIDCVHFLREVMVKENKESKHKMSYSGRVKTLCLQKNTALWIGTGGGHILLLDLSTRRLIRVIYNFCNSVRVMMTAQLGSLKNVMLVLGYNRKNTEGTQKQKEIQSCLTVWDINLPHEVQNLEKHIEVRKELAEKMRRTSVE
- EXPERIMENTAL_DETAILS: LRRK2 G2019S kinase activity assay (LanthaScreen TR-FRET)
- DETAILS: 250 pM LRRK2 G2019S, 1.3 mM ATP, 3 h at 30° C.; n≥2 tests
EXPERIMENTAL_ENDPOINT: IC50 (nM)

Known IC50 results, listed for orientation:
* Cc1c2c(nn1[C@H]1CC[C@H](F)CC1)OCCCn1nc(Cl)c3cnc(nc31)N2 | 5.1
* Cc1c2c(nn1[C@H]1CCCOC1)OCCCn1nc(Cl)c3cnc(nc31)N2 (single isomer, unassigned) [Example 4] | 2.8
* CCc1c2c(nn1C1CCOCC1)OCCCn1nc(Cl)c3cnc(nc31)N2 | 5.8
* Cc1c2c(nn1[C@@H]1CC1(F)F)OCCCn1nc(Cl)c3cnc(nc31)N2 (single isomer, unassigned) [Example 39] | 7.8
* Cc1c2c(nn1CC13CC(CO1)C3)OCCCn1nc(Cl)c3cnc(nc31)N2 | 4.6

(A) CO[C@H]1CC[C@H](n2nc3c(c2C)Nc2ncc4c(Cl)nn(c4n2)CCCO3)CC1
(B) Cc1c2c(nn1[C@@H]1CCOC3(CC3)C1)OCCCn1nc(Cl)c3cnc(nc31)N2 (single isomer, unassigned) [Example 53]
**Q:** Select one: A or B . Criterion: greater recorded IC50. Reply briefly: the label of your chosen item.
**A:** A
(A: 3.7 nM, B: 1.3 nM)

----------
- EXPERIMENTAL_DETAILS: Rat B/P (brain disposition)
- Type: in vivo, male Sprague-Dawley rats
- DETAILS: male, Sprague-Dawley, brain/plasma, oral gavage 5 mg/kg, time point 1.0 h, mean ± stdev, n = 3
EXPERIMENTAL_ENDPOINT: Kp at 1 h

Known Kp at 1 h results, listed for orientation:
• Cc1c2c(nn1[C@H]1CCCCOC1)OCCCn1nc(Cl)c3cnc(nc31)N2 (single isomer, unassigned) [Example 27] = 1.63
• Cc1c2c(nn1[C@H]1CCCOCC1)OCCCn1nc(Cl)c3cnc(nc31)N2 (single isomer, unassigned) [Example 30] = 2.05

(P) Cc1c2c(nn1[C@@H]1CCOC3(CC3)C1)OCCCn1nc(Cl)c3cnc(nc31)N2 (single isomer, unassigned) [Example 53]
(Q) Cc1c2c(nn1C13CC(C#N)(C1)C3)OCCCn1nc(Cl)c3cnc(nc31)N2 [Example 33]
**Q:** Select one: P or Q . Criterion: greater recorded Kp at 1 h. Reply briefly: the label of your chosen item.
**A:** P
